# Tested On: bovine cardiac myofibrils (full-length cardiac myosin ATPase in the native sarcomere) (Bos taurus (Bovine), UniProt Q9BE39)
# Sequence (Q9BE39 whole entry): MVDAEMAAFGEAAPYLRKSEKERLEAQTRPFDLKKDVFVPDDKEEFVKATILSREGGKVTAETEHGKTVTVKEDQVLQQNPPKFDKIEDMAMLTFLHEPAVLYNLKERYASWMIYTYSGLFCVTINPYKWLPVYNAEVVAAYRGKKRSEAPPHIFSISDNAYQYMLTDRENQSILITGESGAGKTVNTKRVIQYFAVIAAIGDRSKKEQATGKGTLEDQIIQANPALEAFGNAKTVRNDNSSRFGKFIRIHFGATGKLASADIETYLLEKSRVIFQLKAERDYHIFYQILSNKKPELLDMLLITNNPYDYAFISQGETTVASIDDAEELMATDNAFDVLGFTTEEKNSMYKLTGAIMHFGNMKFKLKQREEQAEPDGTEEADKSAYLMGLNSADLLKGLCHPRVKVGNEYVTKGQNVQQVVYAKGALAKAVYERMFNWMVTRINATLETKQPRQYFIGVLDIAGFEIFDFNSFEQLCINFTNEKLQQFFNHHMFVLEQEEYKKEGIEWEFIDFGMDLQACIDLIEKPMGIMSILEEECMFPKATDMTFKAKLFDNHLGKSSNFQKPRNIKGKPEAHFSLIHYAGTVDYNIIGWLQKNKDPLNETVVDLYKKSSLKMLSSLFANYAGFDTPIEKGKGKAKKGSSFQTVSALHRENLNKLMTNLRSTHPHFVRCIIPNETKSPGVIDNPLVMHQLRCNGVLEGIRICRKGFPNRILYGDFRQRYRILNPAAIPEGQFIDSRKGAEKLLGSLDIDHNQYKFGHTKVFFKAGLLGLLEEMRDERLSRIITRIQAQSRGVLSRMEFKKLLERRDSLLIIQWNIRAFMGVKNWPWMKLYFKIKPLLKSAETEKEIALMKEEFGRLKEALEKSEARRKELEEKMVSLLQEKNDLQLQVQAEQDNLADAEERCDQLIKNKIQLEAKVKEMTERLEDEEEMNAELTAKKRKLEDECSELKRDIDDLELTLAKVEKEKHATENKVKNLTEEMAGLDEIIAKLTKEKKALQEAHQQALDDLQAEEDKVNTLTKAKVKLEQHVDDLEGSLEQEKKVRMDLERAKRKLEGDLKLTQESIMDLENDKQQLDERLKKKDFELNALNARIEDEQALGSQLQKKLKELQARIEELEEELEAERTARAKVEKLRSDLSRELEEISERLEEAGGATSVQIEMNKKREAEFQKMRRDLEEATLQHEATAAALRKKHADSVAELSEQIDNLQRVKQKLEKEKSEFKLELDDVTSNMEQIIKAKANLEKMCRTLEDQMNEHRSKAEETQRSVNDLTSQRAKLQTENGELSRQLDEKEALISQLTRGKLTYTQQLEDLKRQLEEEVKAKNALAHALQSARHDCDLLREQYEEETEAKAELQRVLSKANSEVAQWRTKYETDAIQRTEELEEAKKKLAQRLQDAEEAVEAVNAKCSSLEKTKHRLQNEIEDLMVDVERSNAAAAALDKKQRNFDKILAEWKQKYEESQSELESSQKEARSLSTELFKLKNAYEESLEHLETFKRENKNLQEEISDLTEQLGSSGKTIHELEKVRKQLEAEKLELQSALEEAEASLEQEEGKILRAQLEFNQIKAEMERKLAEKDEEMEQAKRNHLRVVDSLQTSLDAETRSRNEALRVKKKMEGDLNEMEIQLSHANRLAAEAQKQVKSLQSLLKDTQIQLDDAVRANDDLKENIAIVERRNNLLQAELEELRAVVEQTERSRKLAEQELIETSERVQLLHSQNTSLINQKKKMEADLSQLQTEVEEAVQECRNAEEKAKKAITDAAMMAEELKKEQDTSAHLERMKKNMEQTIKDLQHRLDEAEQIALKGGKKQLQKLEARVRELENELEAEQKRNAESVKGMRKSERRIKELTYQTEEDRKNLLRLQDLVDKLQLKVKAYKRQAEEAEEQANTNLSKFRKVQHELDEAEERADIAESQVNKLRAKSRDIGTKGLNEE
# Sequence (P85100 whole entry partner): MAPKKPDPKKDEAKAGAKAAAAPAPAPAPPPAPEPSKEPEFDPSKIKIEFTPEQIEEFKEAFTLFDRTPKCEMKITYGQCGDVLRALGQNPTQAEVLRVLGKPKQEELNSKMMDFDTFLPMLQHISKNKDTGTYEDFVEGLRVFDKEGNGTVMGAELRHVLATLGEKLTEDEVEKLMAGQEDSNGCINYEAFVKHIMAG
# Sequence (Q3SZE5 whole entry partner): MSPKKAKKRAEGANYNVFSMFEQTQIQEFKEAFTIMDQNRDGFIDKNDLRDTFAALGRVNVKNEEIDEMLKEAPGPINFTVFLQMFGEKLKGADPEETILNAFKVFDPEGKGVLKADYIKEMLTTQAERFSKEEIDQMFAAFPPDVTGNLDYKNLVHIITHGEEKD
# Assay Procedure: Skinned bovine cardiac myofibril ATPase assay (PK/LDH-coupled)
# Assay type: biochemical
# Protocol Conditions: Ca2+ activating to 75% of maximal rate, concentration giving 15% inhibition
Property: CDMF75 IC15 (nM)

Solved cases below.
INSERT INTO measurements (compound, property, value_observed) VALUES
  ('CN(C)C(=O)N[C@@H]1CCc2cc(-c3noc(C(F)F)n3)ccc21', 'CDMF75 IC15', 6700),
  ('CCc1cc(-c2ccc3c(c2)OC[C@H]3NC(=O)c2nnn(C)n2)no1', 'CDMF75 IC15', 600),
  ('Cc1cnc(-c2ccc3c(c2)CC[C@H]3NC(=O)c2ccnn2C)s1', 'CDMF75 IC15', 700),
  ('Cc1nc(-c2ccc3c(c2)CCC3NC(=O)c2ccnc(O)c2)no1 (stereo not drawn)', 'CDMF75 IC15', 4300),
  ('CCc1nc(-c2ccc3c(c2)CC[C@H]3NC(=O)c2cn(C)nc2C)no1', 'CDMF75 IC15', 400),
  ('O=C(Nc1ccccc1)NC1CCc2cc(-c3noc(C(F)F)n3)ccc21 (stereo not drawn)', 'CDMF75 IC15', 500),
  ('Cc1oncc1C(=O)N[C@@H]1CCc2cc(-c3noc(C(F)F)n3)ccc21', 'CDMF75 IC15', 300);

[A] CCc1cc(-c2ccc3c(c2)CC[C@H]3NC(=O)c2cnn(C)c2)no1
[B] CCc1nc(-c2ccc3c(c2)CC[C@H]3NC(=O)c2cnn(CC(N)=O)c2)no1
Prompt line: Please indicate which item has the smaller measured CDMF75 IC15: A versus B Respond with the label that goes with your answer.
Response line: A
(A: 400 nM, B: 900 nM)
